Test system: MRC‐5 cells
procedure_details: MRC‐5 cytotoxicity in vitro assay (resazurin)
Type: cell-based, human
test_conditions: Homo sapiens, MRC5, 72 h, MRC‐5‐SV2 cytotoxicity, 72 h; SD ±0.2, n>=2; read-out: pIC50 MRC‐5 (converted)
// values below are reported IC50
measurement_type: IC50 (µM)

compound	target_system	operator_symbol	measured_result
COc1ccc(-c2nnc(CC3CCOCC3)o2)cc1-c1cccnc1 [compound 134]	MRC‐5 cells	>	63.1
COc1ccc(C2=NN(C(C)C)C(=O)C23CCCC3)cc1-c1cccnc1 [compound 89]	MRC‐5 cells	=	31.6
COc1ccc(C2=NN(C(C)C)C(=O)C23CCOCC3)cc1-c1cccnc1 [compound 92]	MRC‐5 cells	=	31.6
CC(C)N1N=C(c2ccc(Cl)c(-c3cccnc3)c2)C(C)(C)C1=O [compound 63]	MRC‐5 cells	=	15.8
COc1ccc(C2=Nn3c(C4CC4)nnc3C2(C)C)cc1-c1cccnc1 [compound 109]	MRC‐5 cells	>	63.1
COc1ccc(C2=NN(C(C)C)C(=O)C23CC=CC3)cc1-c1cccnc1 [compound 90]	MRC‐5 cells	=	39.8
CC(C)N1N=C(c2ccc(C#N)c(-c3cccnc3)c2)C(C)(C)C1=O [compound 74]	MRC‐5 cells	>	63.1
COc1ccc(C2=NN(C(C)C)C(=O)CC2)cc1-c1cccnc1 [compound 104]	MRC‐5 cells	=	25.1
COc1ccc(-c2nnc(-c3ccccc3)o2)cc1-c1cccnc1 [compound 135]	MRC‐5 cells	>	63.1
COc1ccc(-c2nc(-c3ccccc3)co2)cc1-c1cccnc1 [compound 121]	MRC‐5 cells	<	6.31
COc1ccc(-c2nnc(C(C)C)o2)cc1-c1cccnc1 [compound 132]	MRC‐5 cells	>	63.1
COc1ccc(Cc2nnc(N)s2)cc1-c1cccnc1 [compound 98]	MRC‐5 cells	>	63.1
COc1ccc(-c2nnc(-c3cccc(F)c3)o2)cc1-c1cccnc1 [compound 136]	MRC‐5 cells	>	63.1
COc1ccc(C2=NN(C(C)C)C(=O)C23CCN(C)CC3)cc1-c1cccnc1 [compound 91]	MRC‐5 cells	=	50.1
COc1cc(C2=NN(C(C)C)C(=O)C2(C)C)cc(-c2cccnc2)c1 [compound 57]	MRC‐5 cells	=	31.6
COc1ccc(C2=NN(C(C)C)C(=O)C2(C)C)c(F)c1-c1cccnc1 [compound 65]	MRC‐5 cells	>	63.1
COc1ccc(-c2nc(-c3ccccc3)cs2)cc1-c1cccnc1 [compound 142]	MRC‐5 cells	=	2.51
COc1ccc(C2=NN(C(C)C)C(=O)C2(C)C)cc1-c1cccnc1 [compound 3]	MRC‐5 cells	=	39.8
COc1cc(C2=NN(C(C)C)C(=O)C2(C)C)cc(-c2cccnc2)c1OC [compound 58]	MRC‐5 cells	>	63.1
COc1ccc(-c2cc3n(n2)CCO3)cc1-c1cccnc1 [compound 95]	MRC‐5 cells	=	50.1
